Readings of inhibition for the listed compounds
Study System: Alpha amylase (Homo sapiens) (UniProt P0DUB6)
Sequence (P0DUB6 whole entry, looked up): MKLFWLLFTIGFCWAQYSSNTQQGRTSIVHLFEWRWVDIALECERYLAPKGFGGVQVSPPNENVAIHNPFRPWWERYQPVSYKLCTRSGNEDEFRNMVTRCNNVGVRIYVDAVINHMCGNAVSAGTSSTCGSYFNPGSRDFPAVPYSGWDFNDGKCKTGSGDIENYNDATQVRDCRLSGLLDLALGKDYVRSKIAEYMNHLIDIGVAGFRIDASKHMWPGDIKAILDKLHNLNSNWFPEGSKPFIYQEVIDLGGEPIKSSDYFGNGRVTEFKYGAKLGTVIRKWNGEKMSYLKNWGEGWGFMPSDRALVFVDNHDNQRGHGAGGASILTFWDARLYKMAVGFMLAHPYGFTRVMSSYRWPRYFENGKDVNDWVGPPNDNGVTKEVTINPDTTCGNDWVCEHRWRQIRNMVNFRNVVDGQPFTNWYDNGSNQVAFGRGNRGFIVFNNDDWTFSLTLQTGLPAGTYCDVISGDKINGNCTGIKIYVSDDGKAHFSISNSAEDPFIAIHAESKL
Protocol Description: Inhibition of human alpha-amylase at 100 ug/ml using starch as substrate preincubated for 30 mins by 3,5-dinitrosalicylic acid color reagent based assay relative to control

{"Compound Structure": "Cc1ccc(/N=C2/NC(=O)/C(=C/c3cn(-c4ccccc4)nc3-c3ccc(Br)cc3)S2)cc1", "Study System": "Alpha amylase (Homo sapiens) (UniProt P0DUB6)", "inhibition [%]": 72.9}
{"Compound Structure": "Cc1ccc(/N=C2/NC(=O)/C(=C/c3cn(-c4ccccc4)nc3-c3ccc(Cl)cc3)S2)cc1", "Study System": "Alpha amylase (Homo sapiens) (UniProt P0DUB6)", "inhibition [%]": 81.1}
{"Compound Structure": "Cc1ccc(/N=C2/NC(=O)/C(=C/c3cn(-c4ccccc4)nc3-c3ccc(C)cc3)S2)cc1", "Study System": "Alpha amylase (Homo sapiens) (UniProt P0DUB6)", "inhibition [%]": 83.7}
{"Compound Structure": "Cc1ccc(/N=C2/NC(=O)/C(=C/c3cn(-c4ccccc4)nc3-c3ccccc3)S2)cc1", "Study System": "Alpha amylase (Homo sapiens) (UniProt P0DUB6)", "inhibition [%]": 81.6}
{"Compound Structure": "COc1ccc(-c2nn(-c3ccccc3)cc2/C=C2\\S/C(=N\\c3ccc(C)cc3)NC2=O)cc1", "Study System": "Alpha amylase (Homo sapiens) (UniProt P0DUB6)", "inhibition [%]": 90}
